The values you see were collected from patent US20240277670A1.

METHOD DESCRIPTION: Food effect (FE) part, plasma pharmacokinetics
Type: in vivo, human
SETUP CONDITIONS: human, plasma, po, 200 mg, Treatment E: single oral dose 200 mg ASD-in-Capsule, fed (high-fat, high-calorie breakfast); mean
QUANTITY KIND: half-life (min)
Provide only the numeric value, understood in min.

### Prompt So what does the record say about half-life for Cc1cccc(COc2ccc(Sc3ccoc3C3NC(=O)NC3=O)cc2)c1 (stereo not shown) [compound of formula (I)] ?
### Response 485

###

METHOD DESCRIPTION: Multiple ascending dose (MAD) part, plasma pharmacokinetics
Format: in vivo, human
SETUP CONDITIONS: human, plasma, oral; Treatment C (400 mg, b.i.d. Days 2-7), Day 8; mean
QUANTITY KIND: Cmax (ng/mL)
Provide only the numeric value, understood in ng/mL.

### Prompt So what does the record say about Cmax for Cc1cccc(COc2ccc(Sc3ccoc3C3NC(=O)NC3=O)cc2)c1 (stereo not shown) ?
### Response 3710

###

METHOD DESCRIPTION: Food effect (FE) part, plasma pharmacokinetics
Format: in vivo, human
SETUP CONDITIONS: human, plasma, po, 200 mg, Treatment D: single oral dose 200 mg ASD-in-Capsule, fasted; mean; read-out: Cmax
QUANTITY KIND: Cmax (ng/mL)
Provide only the numeric value, understood in ng/mL.

### Prompt So what does the record say about Cmax for Cc1cccc(COc2ccc(Sc3ccoc3C3NC(=O)NC3=O)cc2)c1 (stereo not shown) ?
### Response 1050

###

METHOD DESCRIPTION: Food effect (FE) part, plasma pharmacokinetics
Format: in vivo, human
SETUP CONDITIONS: human, plasma, po, 200 mg, Treatment D: 200 mg single oral dose, fasted; geometric least-squares mean; read-out: AUC0- GM
QUANTITY KIND: AUC (ng·h/mL)
Provide only the numeric value, understood in ng·h/mL.

### Prompt So what does the record say about AUC for Cc1cccc(COc2ccc(Sc3ccoc3C3NC(=O)NC3=O)cc2)c1 (stereo not shown) ?
### Response 6260

###

METHOD DESCRIPTION: Food effect (FE) part, plasma pharmacokinetics
Assay type: in vivo, human
SETUP CONDITIONS: human, plasma, po, 200 mg, Treatment D: single oral dose 200 mg ASD-in-Capsule, fasted; mean; read-out: AUC0-inf
QUANTITY KIND: AUC(0-inf) (ng·h/mL)
Provide only the numeric value, understood in ng·h/mL.

### Prompt So what does the record say about AUC(0-inf) for Cc1cccc(COc2ccc(Sc3ccoc3C3NC(=O)NC3=O)cc2)c1 (stereo not shown) ?
### Response 6620

###

METHOD DESCRIPTION: Food effect (FE) part, plasma pharmacokinetics
Format: in vivo, human
SETUP CONDITIONS: human, plasma, po, 200 mg, Treatment D: single oral dose 200 mg ASD-in-Capsule, fasted; mean
QUANTITY KIND: AUC(0-t) (µg·h/mL)
Provide only the numeric value, understood in µg·h/mL.

### Prompt So what does the record say about AUC(0-t) for Cc1cccc(COc2ccc(Sc3ccoc3C3NC(=O)NC3=O)cc2)c1 (stereo not shown) ?
### Response 6.49

###

METHOD DESCRIPTION: Multiple ascending dose (MAD) part, plasma pharmacokinetics
Type: in vivo, human
SETUP CONDITIONS: human, plasma, oral; Treatment B (200 mg, b.i.d. Days 2-7), Day 8; mean
QUANTITY KIND: half-life (h)
Provide only the numeric value, understood in h.

### Prompt So what does the record say about half-life for Cc1cccc(COc2ccc(Sc3ccoc3C3NC(=O)NC3=O)cc2)c1 (stereo not shown) ?
### Response 8.14

###

METHOD DESCRIPTION: Multiple ascending dose (MAD) part, plasma pharmacokinetics
Assay type: in vivo, human
SETUP CONDITIONS: human, plasma, oral; Treatment A (100 mg, b.i.d. Days 2-7), Day 8; median
QUANTITY KIND: Tmax
Provide a numeric answer, followed by its unit.

### Prompt So what does the record say about Tmax for Cc1cccc(COc2ccc(Sc3ccoc3C3NC(=O)NC3=O)cc2)c1 (stereo not shown) ?
### Response 2 h

###

METHOD DESCRIPTION: Multiple ascending dose (MAD) part, plasma pharmacokinetics
Format: in vivo, human
SETUP CONDITIONS: human, plasma; Treatment C (400 mg ASD-in-Capsule oral), Day 1; mean
QUANTITY KIND: Cmax

### Prompt So what does the record say about Cmax for Cc1cccc(COc2ccc(Sc3ccoc3C3NC(=O)NC3=O)cc2)c1 (stereo not shown) ?
### Response 2730 ng/mL

###

METHOD DESCRIPTION: Multiple ascending dose (MAD) part, plasma pharmacokinetics
Assay type: in vivo, human
SETUP CONDITIONS: human, plasma; Treatment B (200 mg ASD-in-Capsule oral), Day 1; median
QUANTITY KIND: Tmax (h)
Provide only the numeric value, understood in h.

### Prompt So what does the record say about Tmax for Cc1cccc(COc2ccc(Sc3ccoc3C3NC(=O)NC3=O)cc2)c1 (stereo not shown) ?
### Response 1.02

###

METHOD DESCRIPTION: Multiple ascending dose (MAD) part, plasma pharmacokinetics
Assay type: in vivo, human
SETUP CONDITIONS: human, plasma, oral; Treatment C (400 mg, b.i.d. Days 2-7), Day 8; median
QUANTITY KIND: Tmax
Provide a numeric answer, followed by its unit.

### Prompt So what does the record say about Tmax for Cc1cccc(COc2ccc(Sc3ccoc3C3NC(=O)NC3=O)cc2)c1 (stereo not shown) ?
### Response 1.5 h

###

METHOD DESCRIPTION: Multiple ascending dose (MAD) part, plasma pharmacokinetics
Type: in vivo, human
SETUP CONDITIONS: human, plasma; Treatment C (400 mg ASD-in-Capsule oral), Day 1; mean
QUANTITY KIND: AUC(0-inf)
Provide a numeric answer, followed by its unit.

### Prompt So what does the record say about AUC(0-inf) for Cc1cccc(COc2ccc(Sc3ccoc3C3NC(=O)NC3=O)cc2)c1 (stereo not shown) ?
### Response 19900 ng·h/mL

###

METHOD DESCRIPTION: Multiple ascending dose (MAD) part, plasma pharmacokinetics
Assay type: in vivo, human
SETUP CONDITIONS: human, plasma, oral, 100 mg, Treatment A (100 mg, b.i.d. Days 2-7), Day 8; mean; read-out: AUC0-12
QUANTITY KIND: AUC(0-t)

### Prompt So what does the record say about AUC(0-t) for Cc1cccc(COc2ccc(Sc3ccoc3C3NC(=O)NC3=O)cc2)c1 (stereo not shown) ?
### Response 4380 ng·h/mL

###

METHOD DESCRIPTION: Food effect (FE) part, plasma pharmacokinetics
Assay type: in vivo, human
SETUP CONDITIONS: human, plasma, po, 200 mg, Treatment D: 200 mg single oral dose, fasted; geometric least-squares mean; read-out: AUC0-inf GM
Experimental: In this part, eight subjects received 200 mg ASD-in-Capsule orally as a single dose in a randomized way, once under fasting conditions and once after the intake of a high fat breakfast, with a wash-out period of one week between successive dosing (FIG. 4). […] The samples were subjected to liquid chromatography followed by analyses by tandem mass spectrometry. The lower limit of quantification for the compound of formula (I) was 5 ng/mL. […]
QUANTITY KIND: AUC(0-inf)
Provide a numeric answer, followed by its unit.

### Prompt So what does the record say about AUC(0-inf) for Cc1cccc(COc2ccc(Sc3ccoc3C3NC(=O)NC3=O)cc2)c1 (stereo not shown) ?
### Response 6400 ng·h/mL

###

METHOD DESCRIPTION: Multiple ascending dose (MAD) part, plasma pharmacokinetics
Type: in vivo, human
SETUP CONDITIONS: human, plasma, oral, 200 mg, Treatment B (200 mg, b.i.d. Days 2-7), Day 8; mean; read-out: AUC0-12
QUANTITY KIND: AUC(0-t) (ng·h/mL)
Provide only the numeric value, understood in ng·h/mL.

### Prompt So what does the record say about AUC(0-t) for Cc1cccc(COc2ccc(Sc3ccoc3C3NC(=O)NC3=O)cc2)c1 (stereo not shown) ?
### Response 13100

###

METHOD DESCRIPTION: Multiple ascending dose (MAD) part, plasma pharmacokinetics
Format: in vivo, human
SETUP CONDITIONS: human, plasma; Treatment A (100 mg ASD-in-Capsule oral), Day 1; mean; read-out: Vz/F
QUANTITY KIND: Vd/F (L)
Provide only the numeric value, understood in L.

### Prompt So what does the record say about Vd/F for Cc1cccc(COc2ccc(Sc3ccoc3C3NC(=O)NC3=O)cc2)c1 (stereo not shown) [compound of formula (I)] ?
### Response 291

###

METHOD DESCRIPTION: Multiple ascending dose (MAD) part, plasma pharmacokinetics
Assay type: in vivo, human
SETUP CONDITIONS: human, plasma; Treatment C (400 mg ASD-in-Capsule oral), Day 1; mean
QUANTITY KIND: half-life (h)
Provide only the numeric value, understood in h.

### Prompt So what does the record say about half-life for Cc1cccc(COc2ccc(Sc3ccoc3C3NC(=O)NC3=O)cc2)c1 (stereo not shown) [compound of formula (I)] ?
### Response 6.48
